# System: CP194
# ASSAY DETAILS: qHTS profiling for inhibitors of Plasmodium falciparum proliferation (AID 504749); also: nearly all actives have a fitted effect of over 60% in size
# APPLIED CONDITIONS: P. falciparum in erythrocytes, SYBR Green DNA, 72 h; series mostly up to 28.7 µM
Inconclusive results are not listed. The source made the active and inactive calls. Calls follow the shape of the dose curve; as a rule, active = well fitted inhibition curve with a large enough effect; inconclusive = small, poorly fitted or top-dose-only effect; inactive = flat fitted curve, though single readings scatter.
In this exercise, the only acceptable responses are Y for active, N for inactive

Assay result, entry `O=C1NCC2(CCN(CCc3ccccc3)CC2)O1` — outcome?
N

// param item: `Clc1ccc(Cn2c(CN3CCCC3)nc3ccccc32)cc1` ; yields the recorded call
N

I'd appreciate the recorded outcome for `NC(N)=Nc1nc(CSCC/C(N)=N/S(N)(=O)=O)cs1` from this test.
N

How did this test come out for `CC1(C)O[C@H]2C[C@@H]3[C@H]4CCC5=CC(=O)C=C[C@]5(C)[C@@]4(F)[C@@H](O)C[C@]3(C)[C@]2(C(=O)CO)O1` ?
N

Recorded test call requested for `COc1ccc(Cc2nccc3cc(OC)c(OC)cc23)cc1OC`
N

Hey, what did the test say about `COc1ccccc1N1CCN(CCCNc2cc(=O)n(C)c(=O)n2C)CC1` ?
N

Identify the outcome logged in this assay for the compound shown: `O=c1[nH]cnc2c1ncn2[C@H]1CC[C@@H](CO)O1`
N

Hello, I am checking results. What call was entered for `CC(=O)c1ccc(S(=O)(=O)NC(=O)NC2CCCCC2)cc1` ?
N

Field: outcome | Entry: `CCCNC(=O)NS(=O)(=O)c1ccc(Cl)cc1`
N

Please state the recorded outcome for this compound: `C[C@@H](O)[C@H]1C(=O)N2C(C(=O)O)=C(S[C@@H]3CN[C@H](C(=O)N(C)C)C3)[C@H](C)[C@H]12`
N

What was the test verdict on `C[N+](C)(C)CCCCCC[N+](C)(C)C` ?
N

Hello, I am checking results. What call was entered for `CC1=C(/C=C/C(C)=C/C=C/C(C)=C/C(=O)Nc2ccc(O)cc2)C(C)(C)CCC1` ?
Y

State the result this test recorded for `CCN(CC)C(=O)c1ccc(O)c(OC)c1` .
N

----------
# ASSAY DETAILS: Quantitative High-Throughput drug screen in 47 multiple myeloma cell lines against the NCATS MIPE library collection: AMO1_DSMZ cell viability assay (AID 1918927; also: nearly all actives have a fitted effect of over 30% in size)
# APPLIED CONDITIONS: AMO1 myeloma cells viability, CellTiter-Glo ATP luminescence, 48 h; series mostly up to 45.8 µM
Results filed as inconclusive are left out. Activity calls are given as the source filed them. Calls come from the whole dose curve; as a rule, active = well fitted cell-killing curve with a large enough effect; inconclusive = small, poorly fitted or top-dose-only effect, or effect the other way; inactive = no such curve, though single readings can be large or run the other way.
Give your call using only these classes: Y (active), N (inactive)

Hey, what did the test say about `O=c1[nH]cnc2c1ncn2[C@H]1CC[C@@H](CO)O1` ?
N

Which outcome was entered for the compound `NC(=O)NN=Cc1ccc([N+](=O)[O-])o1` in this test?
Y

Please share the test call associated with `COc1cc2nc(-c3ccc(N4CCN(C)CC4)cc3)nc(NCCN3CCOCC3)c2cc1OC` .
Y

Given CCCCCNC(=O)N1CCC(CN(Cc2ccc(Cl)cc2)Cc2ccc([N+](=O)[O-])s2)C1 (stereo unspecified) , state the outcome it received in this test.
Y

What outcome does the record of this test show for `CC(=O)N(C)C1(c2ccccc2)CCN(CCC[C@]2(c3ccc(Cl)c(Cl)c3)CCCN(C(=O)c3ccccc3)C2)CC1` ?
Y

So what was the verdict on `Cc1ccn(-c2ccc(-c3ncco3)cc2)c(=O)c1-c1ccc2nc(N)ncc2c1` in this test?
Y

Identify the outcome logged in this assay for the compound shown: `COc1cccc(-c2cc(=O)c3ccccc3o2)c1N`
Y

What did this assay record as the result for Clc1ccc(CCC(Cn2ccnc2)Sc2c(Cl)cccc2Cl)cc1 (stereo unspecified) ?
Y

Which outcome was assigned to `Oc1ccc(C2=Cc3ccc(O)cc3OC2)cc1` in this test?
Y

Which outcome was assigned to `Clc1ccc(-c2nc3sccn3c2C=NOCc2ccc(Cl)c(Cl)c2)cc1` in this test?
N

Per the records of this test, what outcome belongs to `CCC(=O)O[C@]1(C(=O)CO)CC[C@H]2[C@@H]3CCC4=CC(=O)CC[C@]4(C)[C@@H]3CC[C@@]21C` ?
N

Assay outcome for `COc1cc(Nc2ncc(F)c(Nc3ccc4c(n3)NC(=O)C(C)(C)O4)n2)cc(OC)c1OC` : what was it?
N

For `CC(C)C(=O)Nc1ncc(-c2cc(C(F)F)nn2-c2c(Cl)cccc2Cl)s1` , which call appears in the assay record?
Y

Fill in: this test's call for `NS(=O)(=O)c1cccc2c1C(=O)c1cccc(O)c1C2=O` is ___
Y

// return assay outcome for CC(C)C(C)C=CC(C)C1CCC2C3=CC=C4CC(O)CCC4(C)C3CCC21C (stereo unspecified)
N

// outcome(item) with item = `OC[C@H]1O[C@@H](n2cnc3c2NC=NC[C@@H]3O)C[C@H]1O`
N

Name the outcome recorded for `CNC(=O)c1ccccc1Sc1ccc2c(C=Cc3ccccn3)n[nH]c2c1` in the assay.
Y

Hi, sorry to bother you, what did the test record for `O=C(NCc1ccccc1)c1csc(Nc2ccncn2)n1` ?
Y

Which result was noted for this compound in the test: `O=c1c(-c2ccc(O)cc2)coc2cc(O)ccc12`
N

How did this test come out for `CCn1c(C(=O)N(C2CC2)C2CC2)cc2c3c(ncn3C)c(Nc3cc(C)n(C)n3)nc21` ?
N

How did this test come out for CS(=O)c1ccc(-c2nc(-c3ccc(F)cc3)c(-c3ccncc3)[nH]2)cc1 (stereo unspecified) ?
Y

meta.source: PubChem BioAssay (NCATS)
